I'd appreciate it if you could supply total protein half-life in vivo values for the items below.
experiment: total protein half-life in vivo (active degradation + dilution); higher = more stable protein; details: E. coli NCM3722 delta-smpB; growth: N-lim chemostat; doubling time 6 h
One number for each entry, in h.

| BIOSEQUENCE | REPORTED_MEASUREMENT |
| --- | --- |
| MFTGSIVAIVTPMDEKGNVCRASLKKLIDYHVASGTSAIVSVGTTGESATLNHDEHADVVMMTLDLADGRIPVIAGTGANATAEAISLTQRFNDSGIVGCLTVTPYYNRPSQEGLYQHFKAIAEHTDLPQILYNVPSRTGCDLLPETVGRLAKVKNIIGIKEATGNLTRVNQIKELVSDDFVLLSGDDASALDFMQLGGHGVISVTANVAARDMAQMCKLAAEGHFAEARVINQRLMPLHNKLFVEPNPIPVKWACKELGLVATDTLRLPMTPITDSGRETVRAALKHAGLL [P0A6L2] | 3.42 |

Incoming: Requested read-out: total protein half-life in vivo. Entry: MERIVVTLGERSYPITIASGLFNEPASFLPLKSGEQVMLVTNETLAPLYLDKVRGVLEQAGVNVDSVILPDGEQYKSLAVLDTVFTALLQKPHGRDTTLVALGGGVVGDLTGFAAASYQRGVRFIQVPTTLLSQVDSSVGGKTAVNHPLGKNMIGAFYQPASVVVDLDCLKTLPPRELASGLAEVIKYGIILDGAFFNWLEENLDALLRLDGPAMAYCIRRCCELKAEVVAADERETGLRALLNLGHTFGHAIEAEMGYGNWLHGEAVAAGMVMAARTSERLGQFSSAETQRIITLLKRAGLPVNGPREMSAQAYLPHMLRDKKVLAGEMRLILPLAIGKSEVRSGVSHELVLNAIADCQSA
Outgoing: 3.57
